// data source = patent US20230235054A1

- systemTested: T1, human Nectin-4 on cells (human, UniProt Q96NY8 32-510)
- T1 construct: whole, on cells; also called HEK293 cells expressing human Nectin-4; T47D cells that express human Nectin-4
- T1 sequence (looked up): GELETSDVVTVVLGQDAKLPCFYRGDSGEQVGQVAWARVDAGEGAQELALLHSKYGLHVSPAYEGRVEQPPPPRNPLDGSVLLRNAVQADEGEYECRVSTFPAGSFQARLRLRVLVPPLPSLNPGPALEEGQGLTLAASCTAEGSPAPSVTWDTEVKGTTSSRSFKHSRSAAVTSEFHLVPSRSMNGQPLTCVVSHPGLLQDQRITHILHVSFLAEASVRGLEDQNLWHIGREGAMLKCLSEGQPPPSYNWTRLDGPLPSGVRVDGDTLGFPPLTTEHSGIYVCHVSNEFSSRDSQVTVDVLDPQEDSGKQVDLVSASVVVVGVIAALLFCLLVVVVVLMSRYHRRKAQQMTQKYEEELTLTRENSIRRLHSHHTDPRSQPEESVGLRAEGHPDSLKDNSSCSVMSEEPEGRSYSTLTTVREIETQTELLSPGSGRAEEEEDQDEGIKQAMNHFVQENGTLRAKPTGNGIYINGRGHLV
- assayDetails: FACS, T47D cells
readoutKind: Ratio (pH 7.4/6.0) of EC50
Note: the reply should be a number with no unit written.

// below: answered binders
>>> measvalue("BAP-143-00-05 (antibody, V domains shown, Used as a conjugate with a linker payload (CAB ADC)) VH: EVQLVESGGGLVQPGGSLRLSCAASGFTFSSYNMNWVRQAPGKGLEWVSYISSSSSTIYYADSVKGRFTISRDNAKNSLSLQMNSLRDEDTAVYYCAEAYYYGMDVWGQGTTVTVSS VL: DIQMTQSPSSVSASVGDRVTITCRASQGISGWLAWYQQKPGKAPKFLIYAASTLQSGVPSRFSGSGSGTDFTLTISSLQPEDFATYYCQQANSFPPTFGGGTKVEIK")
2.4
>>> measvalue("BAP-143-00-01 (antibody, V domains shown, Used as a conjugate with a linker payload (CAB ADC)) VH: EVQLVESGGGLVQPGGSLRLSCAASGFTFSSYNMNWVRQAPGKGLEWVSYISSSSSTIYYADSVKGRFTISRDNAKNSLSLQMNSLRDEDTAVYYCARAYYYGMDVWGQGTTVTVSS VL: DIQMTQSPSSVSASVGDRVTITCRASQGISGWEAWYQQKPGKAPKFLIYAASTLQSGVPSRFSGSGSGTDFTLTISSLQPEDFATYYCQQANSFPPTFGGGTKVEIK")
6.7
>>> measvalue("BAP-143-00-02 (antibody, V domains shown, Used as a conjugate with a linker payload (CAB ADC)) VH: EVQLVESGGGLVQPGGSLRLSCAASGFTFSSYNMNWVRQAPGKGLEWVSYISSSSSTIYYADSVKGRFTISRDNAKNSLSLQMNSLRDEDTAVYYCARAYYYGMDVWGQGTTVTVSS VL: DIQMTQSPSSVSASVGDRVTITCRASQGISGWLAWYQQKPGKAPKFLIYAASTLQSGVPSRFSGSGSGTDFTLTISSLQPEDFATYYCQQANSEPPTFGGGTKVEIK")
2.9
>>> measvalue("BAP-143-00-06 (antibody, V domains shown, Used as a conjugate with a linker payload (CAB ADC)) VH: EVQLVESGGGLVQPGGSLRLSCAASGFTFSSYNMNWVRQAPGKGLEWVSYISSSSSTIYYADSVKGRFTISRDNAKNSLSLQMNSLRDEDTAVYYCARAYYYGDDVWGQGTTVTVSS VL: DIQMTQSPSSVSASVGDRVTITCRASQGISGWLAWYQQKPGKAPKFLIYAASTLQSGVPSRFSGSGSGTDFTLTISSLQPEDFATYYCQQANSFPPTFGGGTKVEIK")
2.6
>>> measvalue("BAP-143-00-03 (antibody, V domains shown, Used as a conjugate with a linker payload (CAB ADC)) VH: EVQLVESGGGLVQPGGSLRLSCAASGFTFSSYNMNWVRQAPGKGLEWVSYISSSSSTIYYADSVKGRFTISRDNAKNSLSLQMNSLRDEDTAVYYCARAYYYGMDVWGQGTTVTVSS VL: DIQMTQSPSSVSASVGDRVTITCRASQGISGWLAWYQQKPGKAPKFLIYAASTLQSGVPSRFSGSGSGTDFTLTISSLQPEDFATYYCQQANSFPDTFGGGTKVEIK")
3.6
>>> measvalue("BAP-143-wildtype (antibody, V domains shown, 150 kDa used in SPR; also called BAP143-00-00; benchmark (BM)) VH: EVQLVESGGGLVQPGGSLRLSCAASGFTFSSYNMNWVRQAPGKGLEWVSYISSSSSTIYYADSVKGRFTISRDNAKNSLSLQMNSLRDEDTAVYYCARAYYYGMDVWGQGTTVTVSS VL: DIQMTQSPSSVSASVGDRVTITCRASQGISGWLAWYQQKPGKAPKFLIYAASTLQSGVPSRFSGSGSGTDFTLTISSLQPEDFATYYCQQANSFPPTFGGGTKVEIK")
0.9

Input: Given the binder BAP-143-00-04 (antibody, V domains shown, Used as a conjugate with a linker payload (CAB ADC)) VH: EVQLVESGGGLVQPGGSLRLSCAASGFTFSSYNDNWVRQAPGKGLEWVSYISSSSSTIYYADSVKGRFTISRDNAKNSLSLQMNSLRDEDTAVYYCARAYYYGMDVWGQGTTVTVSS VL: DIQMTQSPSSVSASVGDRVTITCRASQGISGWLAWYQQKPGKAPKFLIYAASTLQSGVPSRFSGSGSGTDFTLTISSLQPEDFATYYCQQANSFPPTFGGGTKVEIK , what is its reported Ratio (pH 7.4/6.0) of EC50?
Output: 2.1
